Known concentration at 2 hr of a selection of compounds
assay_info: Pharmacokinetic study, oral gavage in fasted male Sprague-Dawley rats
Format: in vivo, rat
condition_label: male, Sprague-Dawley, rat, plasma, po, 10 mg/kg, individual rats; oral gavage 10 mg/kg; 2.0 hr
Express the result in ng/mL but write the number alone.

NCC(=O)NCCCN1CCC(CCCN2c3ccccc3Sc3ccc(C(F)(F)F)cc32)CC1 ... 33.8

# next compound below
INPUT: Quick one: concentration at 2 hr for `CNCC(=O)NCCCN1CCC(CCCN2c3ccccc3Sc3ccc(C(F)(F)F)cc32)CC1` ?
OUTPUT: 16.6

====

assay_info: Pharmacokinetic study, oral gavage in fasted male Sprague-Dawley rats
Assay type: in vivo, rat
condition_label: male, Sprague-Dawley, rat, plasma, po, 10 mg/kg, mean; oral gavage 10 mg/kg; 0.25 hr
Known concentration at 0.25 hr of a selection of compounds
Express the result in ng/mL but write the number alone.

CNCC(=O)NCCCN1CCC(CCCN2c3ccccc3Sc3ccc(C(F)(F)F)cc32)CC1 ... 3.03

# next compound below
INPUT: Quick one: concentration at 0.25 hr for `NCC(=O)NCCCN1CCC(CCCN2c3ccccc3Sc3ccc(C(F)(F)F)cc32)CC1` ?
OUTPUT: 6.44

====

Known concentration at 8 hr of a selection of molecules
assay_info: Pharmacokinetic study, oral gavage in fasted male Sprague-Dawley rats
Assay type: in vivo, rat
condition_label: male, Sprague-Dawley, rat, plasma, po, 10 mg/kg, mean; oral gavage 10 mg/kg; 8.0 hr
In your response, the unit should come after the numeric value.

CNCC(=O)NCCCN1CCC(CCCN2c3ccccc3Sc3ccc(C(F)(F)F)cc32)CC1 [ICI-1259] ... 3.56 ng/mL

INPUT: Quick one: concentration at 8 hr for NCC(=O)NCCCN1CCC(CCCN2c3ccccc3Sc3ccc(C(F)(F)F)cc32)CC1 [ICI-1260] ?
OUTPUT: 3.31 ng/mL

====

assay_info: Pharmacokinetic study, oral gavage in fasted male Sprague-Dawley rats
Assay type: in vivo, rat
condition_label: male, Sprague-Dawley, rat, plasma, po, 10 mg/kg, individual rats; oral gavage 10 mg/kg; 6.0 hr
property: concentration at 6 hr
In your response, the unit should come after the numeric value.

INPUT: Quick one: concentration at 6 hr for `CNCC(=O)NCCCN1CCC(CCCN2c3ccccc3Sc3ccc(C(F)(F)F)cc32)CC1` ?
OUTPUT: 7.85 ng/mL

====

assay_info: Pharmacokinetic study, oral gavage in fasted male Sprague-Dawley rats
Assay type: in vivo, rat
condition_label: male, Sprague-Dawley, rat, plasma, po, 10 mg/kg, individual rats; oral gavage 10 mg/kg; dose normalized AUC divided by average intravenous AUC; read-out: Bioavailability
Known bioavailability of a selection of compounds
Express the result in % but write the number alone.

NCC(=O)NCCCN1CCC(CCCN2c3ccccc3Sc3ccc(C(F)(F)F)cc32)CC1 ... 13

# next compound below
INPUT: Quick one: bioavailability for `CNCC(=O)NCCCN1CCC(CCCN2c3ccccc3Sc3ccc(C(F)(F)F)cc32)CC1` ?
OUTPUT: 11

====

Known concentration at 0.5 hr of a selection of molecules
assay_info: Pharmacokinetic study, oral gavage in fasted male Sprague-Dawley rats
Assay type: in vivo, rat
condition_label: male, Sprague-Dawley, rat, plasma, po, 10 mg/kg, mean; oral gavage 10 mg/kg; 0.50 hr
Express the result in ng/mL but write the number alone.

NCC(=O)NCCCN1CCC(CCCN2c3ccccc3Sc3ccc(C(F)(F)F)cc32)CC1 [ICI-1260] ... 5.73

INPUT: Quick one: concentration at 0.5 hr for CNCC(=O)NCCCN1CCC(CCCN2c3ccccc3Sc3ccc(C(F)(F)F)cc32)CC1 [ICI-1259] ?
OUTPUT: 3.47

====

assay_info: Pharmacokinetic study, oral gavage in fasted male Sprague-Dawley rats
Assay type: in vivo, rat
condition_label: male, Sprague-Dawley, rat, plasma, po, 10 mg/kg, individual rats; oral gavage 10 mg/kg; extrapolated to infinity
property: AUC(0-inf) (ng·h/mL)
Express the result in ng·h/mL but write the number alone.

INPUT: Quick one: AUC(0-inf) for `NCC(=O)NCCCN1CCC(CCCN2c3ccccc3Sc3ccc(C(F)(F)F)cc32)CC1` ?
OUTPUT: 94

====

assay_info: Pharmacokinetic study, oral gavage in fasted male Sprague-Dawley rats
Format: in vivo, rat
condition_label: male, Sprague-Dawley, rat, plasma, po, 10 mg/kg, individual rats; oral gavage 10 mg/kg; 0.083 hr; BLOQ = below limit of quantitation (1 ng/mL)
Method: ICI-1259 and ICI-1260 were supplied as powders and stored frozen until used. Dosing solutions in phosphate buffered saline were prepared at 1 mg/ml. These solutions were then evaluated in fasted male Sprague-Dawley rats. The rats were fitted with a jugular vein cannula for blood sampling. Rats were also fitted with an additional jugular vein cannula, or intradudodenal cannula as needed. Rats were given a commercial rodent diet ad libitum prior to study initiation. […]
property: concentration at 0.083 hr (ng/mL)
Express the result in ng/mL but write the number alone.

INPUT: Quick one: concentration at 0.083 hr for `NCC(=O)NCCCN1CCC(CCCN2c3ccccc3Sc3ccc(C(F)(F)F)cc32)CC1` ?
OUTPUT: 1.48
